Target: PI3K (p110α/p85α) (Homo sapiens (Human))
Sequence (P42336 whole entry, species assumed): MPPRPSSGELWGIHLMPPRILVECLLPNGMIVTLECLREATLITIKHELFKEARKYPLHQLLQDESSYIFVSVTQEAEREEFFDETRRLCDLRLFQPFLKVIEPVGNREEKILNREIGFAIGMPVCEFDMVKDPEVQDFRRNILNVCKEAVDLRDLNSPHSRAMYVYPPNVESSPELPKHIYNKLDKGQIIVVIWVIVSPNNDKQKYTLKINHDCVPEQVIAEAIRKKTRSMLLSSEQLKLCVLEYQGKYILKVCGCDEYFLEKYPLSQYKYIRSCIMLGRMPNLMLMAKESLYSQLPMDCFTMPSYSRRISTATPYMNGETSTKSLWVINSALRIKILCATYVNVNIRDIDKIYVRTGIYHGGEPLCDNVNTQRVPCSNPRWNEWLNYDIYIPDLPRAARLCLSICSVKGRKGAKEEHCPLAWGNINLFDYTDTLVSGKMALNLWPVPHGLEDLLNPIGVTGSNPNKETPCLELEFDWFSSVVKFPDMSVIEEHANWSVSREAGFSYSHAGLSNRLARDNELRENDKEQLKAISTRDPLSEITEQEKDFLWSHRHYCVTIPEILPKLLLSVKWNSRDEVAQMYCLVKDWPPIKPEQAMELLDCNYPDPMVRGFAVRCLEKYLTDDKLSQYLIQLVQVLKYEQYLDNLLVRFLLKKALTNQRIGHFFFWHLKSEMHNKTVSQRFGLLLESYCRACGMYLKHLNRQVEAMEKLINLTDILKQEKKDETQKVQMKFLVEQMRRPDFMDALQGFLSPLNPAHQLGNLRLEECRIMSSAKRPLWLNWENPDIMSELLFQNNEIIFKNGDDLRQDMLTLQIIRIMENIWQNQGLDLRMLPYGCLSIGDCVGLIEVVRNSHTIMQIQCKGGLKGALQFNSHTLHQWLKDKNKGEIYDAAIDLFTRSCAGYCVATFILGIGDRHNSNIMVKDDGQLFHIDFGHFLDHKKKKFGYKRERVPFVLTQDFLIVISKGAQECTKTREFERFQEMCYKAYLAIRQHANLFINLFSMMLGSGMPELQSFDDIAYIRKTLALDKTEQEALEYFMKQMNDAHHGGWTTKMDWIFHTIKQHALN
Sequence (P27986 whole entry partner, species assumed): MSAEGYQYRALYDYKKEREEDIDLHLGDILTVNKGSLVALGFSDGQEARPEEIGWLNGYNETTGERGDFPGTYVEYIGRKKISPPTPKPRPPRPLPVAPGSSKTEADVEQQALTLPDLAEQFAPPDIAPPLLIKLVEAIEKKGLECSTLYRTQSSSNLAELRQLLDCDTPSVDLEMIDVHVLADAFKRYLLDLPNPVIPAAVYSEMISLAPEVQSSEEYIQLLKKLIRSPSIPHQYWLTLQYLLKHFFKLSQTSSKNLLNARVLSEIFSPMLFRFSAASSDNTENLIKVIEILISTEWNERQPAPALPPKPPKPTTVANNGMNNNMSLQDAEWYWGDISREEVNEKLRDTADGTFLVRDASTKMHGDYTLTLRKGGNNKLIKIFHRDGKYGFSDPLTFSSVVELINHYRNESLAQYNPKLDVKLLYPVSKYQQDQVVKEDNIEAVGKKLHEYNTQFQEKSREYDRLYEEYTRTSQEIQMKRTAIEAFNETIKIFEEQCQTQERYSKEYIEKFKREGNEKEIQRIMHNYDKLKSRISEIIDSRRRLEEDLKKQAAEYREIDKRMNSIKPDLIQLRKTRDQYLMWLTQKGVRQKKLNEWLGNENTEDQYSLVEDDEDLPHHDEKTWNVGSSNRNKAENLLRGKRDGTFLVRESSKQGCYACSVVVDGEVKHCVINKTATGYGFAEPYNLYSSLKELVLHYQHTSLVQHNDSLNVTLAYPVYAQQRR
Test: PI3K HTRF enzyme assay, p110α/p85α
Assay type: biochemical
Conditions: read-out: % inhibition @ 500 nM p110α; compound at 500 nM, 10 μM ATP
REPORTED METRIC: inhibition at 0.5 µM (%)

{"CPD SMILES": "CSc1c(Cl)nc(-c2ccc(NC(=O)Nc3cccnc3)cc2)nc1N1CCOCC1", "NUMERIC RESULT": 59.8}
{"CPD SMILES": "COc1cnc(-c2ccc(NC(=O)Nc3ccc(F)c(F)c3)cc2)nc1N1CCOCC1", "NUMERIC RESULT": 101}
{"CPD SMILES": "CSc1cnc(-c2ccc(NC(=O)Nc3ccc(N4CCOCC4)c(F)c3)cc2)nc1N1CCOCC1", "NUMERIC RESULT": 45.7}

(a) CSc1cnc(-c2ccc(NC(=O)Nc3ccc(N4CCOCC4=O)cc3)cc2F)nc1N1CCOCC1
(b) CCOC(=O)c1nc(-c2ccc(NC(=O)Nc3ccc(C(=O)N4CCOCC4)cc3)cc2)nc(N2CCOCC2)c1OCC
Of the pair a and b , name the member with the lesser recorded inhibition at 0.5 µM. Select an item and report its label.
b

---

Test system: p-S6K (mTORC1)
Experiment: Immunoblotting, PI3K/Akt/mTOR signal transduction, p-S6K
Format: cell-based
Settings: Homo sapiens; PC-3 cell
Description: For immunoblotting experiments, A549 cells were inoculated to the wells of a 6-well culture plate and cultured overnight. […] Proteins were separated by SDS-PAGE electrophoresis and transferred to PVDF membrane. Protein expression was immunobloted by various primary antibodies and detected by Immobilon Western Chemiluminescent HRP Substrate (Millipore). […]
pIC50: −log10 of the molar value.
REPORTED METRIC: pIC50

(P) CS(=O)(=O)N1CCN(Cc2cc3nc(-c4cccc5[nH]ncc45)nc(N4CCOCC4)c3s2)CC1 [GDC-0941]
(Q) Oc1cccc(-c2nc(N3CCOCC3)c3oc4ncccc4c3n2)c1 [PI-103]
Of the pair P and Q , name the member with the lesser recorded pIC50. Select an item and report its label.
P

---

Target: PI3K (p110α/p85α) (Homo sapiens (Human))
Test: PI3K HTRF enzyme assay, p110α/p85α
Format: biochemical
Conditions: read-out: % inhibition @ 500 nM p110α; compound at 500 nM, 10 μM ATP
REPORTED METRIC: inhibition at 0.5 µM (%)

{"CPD SMILES": "CSc1c(Cl)nc(-c2ccc(NC(=O)Nc3ccc(N4CCN(C)CC4)cc3)cc2)nc1N1CCOCC1", "NUMERIC RESULT": 53.6}
{"CPD SMILES": "COc1cnc(-c2ccc(NC(=O)Nc3ccc(C(=O)N4CCOCC4)cc3)cc2)nc1N1CCOCC1", "NUMERIC RESULT": 95.9}
{"CPD SMILES": "COc1cnc(-c2ccc(NC(=O)Nc3ccc(N4CCOCC4)cc3)cc2)nc1N1CCOCC1", "NUMERIC RESULT": 58.4}
{"CPD SMILES": "CCOc1cnc(-c2ccc(NC(=O)Nc3ccc(S(C)(=O)=O)cc3)cc2)nc1N1CCOCC1", "NUMERIC RESULT": 71.5}

---

Target: PI3K (p110α/p85α) (Homo sapiens (Human))
Assay: PI3K HTRF enzyme assay, p110α/p85α
Format: biochemical
Settings: read-out: % inhibition @ 500 nM p110α; compound at 500 nM, 10 μM ATP
REPORTED METRIC: inhibition at 0.5 µM (%)

{"CPD SMILES": "CSc1c(Cl)nc(-c2ccc(NC(=O)Nc3ccccc3)cc2)nc1N1CCOCC1", "inhibition at 0.5 µM (%)": 60.9}
{"CPD SMILES": "CSc1c(-c2ccncc2)nc(-c2ccc(NC(=O)Nc3ccc(N4CCOCC4=O)cc3)cc2)nc1N1CCOCC1", "inhibition at 0.5 µM (%)": 51.7}
{"CPD SMILES": "CSc1c(Cl)nc(-c2ccc(NC(=O)Nc3ccc(NS(C)(=O)=O)cc3)cc2)nc1N1CCOCC1", "inhibition at 0.5 µM (%)": 80.6}
{"CPD SMILES": "CCOc1cnc(-c2ccc(NC(=O)Nc3ccc(S(N)(=O)=O)cc3)cc2)nc1N1CCOCC1", "inhibition at 0.5 µM (%)": 90.7}
{"CPD SMILES": "CCOC(=O)c1nc(-c2ccc(NC(=O)Nc3ccc(S(N)(=O)=O)cc3)cc2)nc(N2CCOCC2)c1OCC", "inhibition at 0.5 µM (%)": 50.2}

(1) CSc1cnc(-c2ccc(NC(=O)Nc3ccncc3)cc2)nc1N1CCOCC1
(2) CCOC(=O)c1nc(-c2ccc(NC(=O)Nc3cccnc3)cc2)nc(N2CCOCC2)c1OCC
When 1 and 2 are compared, which has the higher number for inhibition at 0.5 µM? Select an item and report its label.
1
